Ref: ChEMBL document CHEMBL1155429

- procedure text: Volume of distribution in mouse at 1.0 mg/kg, iv or 2 mg/kg, po
- Format: ADME, organism-based
- condition context: in vivo
parameter measured: Vd (L/kg)
Reply with just the number (in L/kg).

Sample CC(C)(Cc1nc(-c2ccc(O)cn2)no1)C(=O)NC1=C(C(=O)O)CCCC1 ; Vd observed: 0.2

---

- procedure text: Half life in dog at 1.0 mg/kg, iv or 2 mg/kg, po
- Assay type: ADME, organism-based, Canis lupus familiaris
- condition context: in vivo
Consider the following molecules and their measured half-life readings.
Supply the numeric figure in h, leaving out any unit text.

{"item smiles": "CC(C)(Cc1nc(-c2ccc(O)cn2)no1)C(=O)NC1=C(C(=O)O)CCCC1", "half-life (h)": 7.6}

Turning now to a further molecule:
Data point: O=C(CCc1nc(-c2ccc(O)cn2)no1)NC1=C(C(=O)O)CCCC1 ; half-life = 2.1

---

Reported Cmax is given for each of the following compounds.
- procedure text: Toxicity in po dosed dog assessed as Cmax at which threshold dose of vasodilation occurs in ears by spectrocolorimetry
- Format: organism-based, Canis lupus familiaris
- condition context: in vivo, read-out: Activity
Output spec: scalar in µM, unitless text.

{"item smiles": "O=C(O)c1cccnc1", "Cmax [µM]": 14.6}

Attention now shifts to the item below.
Item: CC(C)(Cc1nc(-c2ccc(O)cn2)no1)C(=O)NC1=C(C(=O)O)CCCC1 | Cmax: 182

---

Catalogue of clearance values
- procedure text: Clearance in rat at 1.0 mg/kg, iv or 2 mg/kg, po
- Type: ADME, organism-based
- condition context: in vivo
Kindly answer with a numeric value in mL/min/kg, unit omitted.

// sample CC(Cc1nc(-c2ccc(O)cn2)no1)C(=O)NC1=C(C(=O)O)CCCC1 (single isomer, unassigned) , its clearance was 1.1

response.value for CC(C)(Cc1nc(-c2ccc(O)cn2)no1)C(=O)NC1=C(C(=O)O)CCCC1 (field: clearance) = 0.4

Sample O=C(CCc1nc(-c2ccc(O)cn2)no1)NC1=C(C(=O)O)CCCC1 ; clearance observed: 2

---

- procedure text: Bioavailability in dog at 1.0 mg/kg, iv or 2 mg/kg, po
- Format: ADME, organism-based, Canis lupus familiaris
- condition context: in vivo
parameter measured: bioavailability (%)
Please state the figure in %; there is no need to write the unit.

{"item smiles": "O=C(CCc1nc(-c2ccc(O)cn2)no1)NC1=C(C(=O)O)CCCC1", "bioavailability [%]": 33}

We now examine a further compound.
Entry CC(C)(Cc1nc(-c2ccc(O)cn2)no1)C(=O)NC1=C(C(=O)O)CCCC1 ; bioavailability = 90

---

Some compounds, each annotated with its measured Vd.
- procedure text: Volume of distribution in rat at 1.0 mg/kg, iv or 2 mg/kg, po
- Assay type: ADME, organism-based
- condition context: in vivo
Answer format: numeric, L/kg implied, no suffix.

In the examples that follow, each entry is paired with its recorded Vd.
{"compound": "CC(C)(Cc1nc(-c2ccc(O)cn2)no1)C(=O)NC1=C(C(=O)O)CCCC1", "test value": 0.15}
{"compound": "O=C(CCc1nc(-c2ccc(O)cn2)no1)NC1=C(C(=O)O)CCCC1", "test value": 0.11}

Attention now shifts to the item below.
Measured Vd, CC(Cc1nc(-c2ccc(O)cn2)no1)C(=O)NC1=C(C(=O)O)CCCC1 (single isomer, unassigned) : 0.21
